Attribution: paper PMC4072508

biological target: Bcl-xL, Q07817; assay: peptide SPOT array, c-Myc-tagged receptor at 1 uM or 100 nM, anti-c-Myc-Cy3
Sequence (Q07817 1-209): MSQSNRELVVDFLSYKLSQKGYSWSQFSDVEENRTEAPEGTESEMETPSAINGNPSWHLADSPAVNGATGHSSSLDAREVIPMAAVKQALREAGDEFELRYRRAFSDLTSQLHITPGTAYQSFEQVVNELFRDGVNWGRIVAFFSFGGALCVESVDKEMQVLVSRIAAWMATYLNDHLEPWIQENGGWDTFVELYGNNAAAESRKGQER
The following binders are listed with their measured SPOT signal as a fraction of Bim BH3's signal on the same receptor and array values.
Experimental Endpoint: SPOT signal as a fraction of Bim BH3's signal on the same receptor and array

Binder: SCMATVIHNPDKALGDQFYKEAIEHC [DPF3]
Assay Value: 0.02

Binder: QGDVQMAVSVLIVLGERVRKDIDEQT [WDR24]
Assay Value: 0.02

Binder: DVGTGAGLLEIKKILDEYFTFITDCK [CCT3]
Assay Value: 0.02

Binder: SKFVILSAHKDVFIGDTLSRQAKAAD [BCAR1]
Assay Value: 0.01

Binder: SQEPLEKAQLLALVLDQLIQSHHYAA [MCF2L2]
Assay Value: 0.06

Binder: ELLRLRQHWKDRKVGDKILGDLSYRS [MED17]
Assay Value: 1.2

Binder: YFKLFRASGDMRTNLDNYLYEIQLSS [IGF2R]
Assay Value: 0.28
